conditions: siRNA; also: test system not given here
HELM strings list units from the 5' end as sugar, base in round brackets, then linkage (d deoxyribose, r ribose, m 2'-O-methyl, p phosphodiester). Strings are as the collection lists them, not checked against the first reports. ss, as = sense and antisense strand; [lna] = locked nucleic acid (LNA)
Exercise: state measured target mRNA knockdown for each of the substances provided.

Please review the following examples before continuing.
RNA1{r(A)p.r(G)p.r(C)p.r(G)p.r(A)p.r(U)p.r(C)p.r(C)p.r(C)p.r(G)p.r(A)p.r(A)p.r(C)p.r(A)p.r(A)p.r(G)p.r(U)p.r(A)p.r(U)p.r(T)p.r(T)}|RNA2{r(A)p.m(U)p.r(A)p.r(C)p.r(U)p.r(U)p.r(G)p.r(U)p.r(U)p.r(C)p.r(G)p.r(G)p.r(G)p.r(A)p.r(U)p.r(C)p.r(G)p.r(C)p.r(U)p.r(T)p.r(T)}$$$RNA1{StrandType:ss}|RNA2{StrandType:as}$    85%
RNA1{r(G)p.r(A)p.r(A)p.r(G)p.r(A)p.r(G)p.r(U)p.m(U)p.r(A)p.r(A)p.r(C)p.r(C)p.r(C)p.m(G)p.r(G)p.r(G)p.m(A)p.r(C)p.r(U)p.r(T)p.r(T)}|RNA2{r(A)p.r(G)p.r(U)p.r(C)p.r(C)p.r(C)p.r(G)p.r(G)p.r(G)p.r(U)p.m(U)p.r(A)p.r(A)p.r(C)p.r(U)p.r(C)p.r(U)p.r(U)p.r(C)p.r(T)p.r(T)}$$$RNA1{StrandType:ss}|RNA2{StrandType:as}$    47%

What value of measured target mRNA knockdown is listed for RNA1{r(C)p.r(U)p.r(U)p.r(A)p.r(C)p.r(G)p.r(C)p.r(U)p.r(G)p.r(A)p.r(G)p.r(U)p.r(A)p.r(C)p.r(U)p.r(U)p.r(C)p.r(G)p.r(A)p.r(T)p.r(T)}|RNA2{r(T)p.r(C)p.r(G)p.r(A)p.r(A)p.r(G)p.r(U)p.r(A)p.r(C)p.[lna](T)p.r(C)p.r(A)p.r(G)p.r(C)p.r(G)p.r(U)p.r(A)p.r(A)p.r(G)p.[lna](T)p.[lna](T)}$$$RNA1{StrandType:ss}|RNA2{StrandType:as}$ ? 60%

----------
settings: siRNA
HELM strings list units from the 5' end as sugar, base in round brackets, then linkage (d deoxyribose, r ribose, m 2'-O-methyl, p phosphodiester). Strings are as the collection lists them, not checked against the first reports. ss, as = sense and antisense strand; [fl2r] = 2'-fluoro
quantity.kind: target mRNA knockdown (%)
Answers are plain numbers, in %.

RNA1{r(C)p.r(G)p.r(G)p.r(A)p.r(U)p.r(C)p.m(U)p.r(A)p.r(C)p.r(A)p.r(C)p.r(C)p.r(U)p.r(U)p.r(C)p.r(A)p.r(A)p.r(G)p.r(A)p.r(T)p.r(T)}|RNA2{r(U)p.r(C)p.r(U)p.r(U)p.r(G)p.r(A)p.r(A)p.r(G)p.r(G)p.r(U)p.r(G)p.m(U)p.r(A)p.r(G)p.r(A)p.r(U)p.r(C)p.r(C)p.r(G)p.r(T)p.r(T)}$$$RNA1{StrandType:ss}|RNA2{StrandType:as}$    69
RNA1{r(G)p.r(C)p.r(U)p.r(U)p.r(C)p.r(G)p.r(G)p.r(A)p.r(A)p.r(A)p.r(C)p.r(U)p.r(G)p.r(G)p.r(A)p.[fl2r](C)p.r(A)p.r(U)p.r(C)p.r(T)p.r(T)}|RNA2{r(G)p.r(A)p.[fl2r](U)p.r(G)p.r(U)p.r(C)p.[fl2r](C)p.r(A)p.r(G)p.r(U)p.r(U)p.r(U)p.r(C)p.r(C)p.r(G)p.r(A)p.r(A)p.r(G)p.r(C)p.r(T)p.r(T)}$$$RNA1{StrandType:ss}|RNA2{StrandType:as}$    90

Hi there! I need target mRNA knockdown for each item below, if you can.
1. RNA1{r(C)p.r(U)p.r(A)p.r(G)p.r(A)p.r(G)p.r(G)p.r(A)p.r(U)p.r(C)p.r(U)p.r(U)p.r(G)p.r(A)p.r(A)p.r(G)p.r(A)p.r(C)p.r(C)p.r(T)p.r(T)}|RNA2{r(G)p.r(G)p.r(U)p.r(C)p.r(U)p.r(U)p.[fl2r](C)p.r(A)p.r(A)p.r(G)p.r(A)p.r(U)p.r(C)p.r(C)p.r(U)p.r(C)p.[fl2r](U)p.r(A)p.r(G)p.r(T)p.r(T)}$$$RNA1{StrandType:ss}|RNA2{StrandType:as}$
2. RNA1{r(A)p.r(A)p.r(A)p.r(C)p.[fl2r](C)p.[fl2r](A)p.r(G)p.r(G)p.r(A)p.r(A)p.r(G)p.r(G)p.r(G)p.r(G)p.r(A)p.r(A)p.r(A)p.r(U)p.r(C)p.r(T)p.r(T)}|RNA2{r(G)p.r(A)p.r(U)p.r(U)p.r(U)p.r(C)p.r(C)p.r(C)p.r(C)p.r(U)p.r(U)p.r(C)p.r(C)p.r(U)p.r(G)p.r(G)p.r(U)p.r(U)p.r(U)p.r(T)p.r(T)}$$$RNA1{StrandType:ss}|RNA2{StrandType:as}$
3. RNA1{r(A)p.r(C)p.r(G)p.r(U)p.r(C)p.r(A)p.r(C)p.r(C)p.r(G)p.r(A)p.r(G)p.r(G)p.r(A)p.r(G)p.r(A)p.r(A)p.r(G)p.m(U)p.r(A)p.r(T)p.r(T)}|RNA2{r(U)p.r(A)p.r(C)p.r(U)p.r(U)p.r(C)p.r(U)p.r(C)p.r(C)p.r(U)p.r(C)p.r(G)p.r(G)p.r(U)p.r(G)p.r(A)p.r(C)p.r(G)p.r(U)p.r(T)p.r(T)}$$$RNA1{StrandType:ss}|RNA2{StrandType:as}$

1: 95; 2: 64; 3: 69

----------
Exercise: state measured target mRNA knockdown for each of the substances provided.
conditions: siRNA
HELM strings list units from the 5' end as sugar, base in round brackets, then linkage (d deoxyribose, r ribose, m 2'-O-methyl, p phosphodiester). Strings are as the collection lists them, not checked against the first reports. ss, as = sense and antisense strand; [s4r] = 4'-thioribose
Answers are plain numbers, in %.

Please review the following examples before continuing.
RNA1{r(U)p.m(U)p.r(A)p.r(A)p.r(G)p.r(G)p.r(A)p.r(G)p.r(A)p.r(A)p.r(G)p.r(C)p.m(U)p.m(G)p.r(A)p.r(C)p.r(G)p.r(G)p.r(C)p.r(T)p.r(T)}|RNA2{r(G)p.r(C)p.r(C)p.r(G)p.r(U)p.m(C)p.r(A)p.r(G)p.r(C)p.r(U)p.r(U)p.r(C)p.r(U)p.r(C)p.r(C)p.r(U)p.m(U)p.r(A)p.r(A)p.r(T)p.r(T)}$$$RNA1{StrandType:ss}|RNA2{StrandType:as}$    82
RNA1{r(G)p.r(G)p.r(A)p.r(C)p.m(U)p.r(A)p.r(C)p.m(U)p.r(A)p.r(A)p.r(C)p.r(C)p.r(U)p.r(C)p.m(C)p.r(A)p.r(G)p.r(U)p.r(U)p.r(T)p.r(T)}|RNA2{r(A)p.r(A)p.r(C)p.m(U)p.r(G)p.r(G)p.r(A)p.r(G)p.r(G)p.r(U)p.m(U)p.r(A)p.r(G)p.m(U)p.r(A)p.r(G)p.r(U)p.r(C)p.r(C)p.r(T)p.r(T)}$$$RNA1{StrandType:ss}|RNA2{StrandType:as}$    69
RNA1{r(C)p.r(G)p.r(U)p.r(A)p.r(C)p.r(G)p.r(C)p.r(G)p.r(G)p.r(A)p.r(A)p.r(U)p.r(A)p.r(C)p.r(U)p.r(U)p.r(C)p.r(G)p.r(A)p.r(T)p.r(T)}|RNA2{[s4r](U)p.[s4r](C)p.[s4r](G)p.[s4r](A)p.r(A)p.r(G)p.r(U)p.r(A)p.r(U)p.r(U)p.r(C)p.r(C)p.r(G)p.r(C)p.r(G)p.[s4r](U)p.[s4r](A)p.[s4r](C)p.[s4r](G)p.r(T)p.r(T)}$$$RNA1{StrandType:ss}|RNA2{StrandType:as}$    20
RNA1{r(A)p.r(A)p.r(A)p.r(C)p.r(C)p.r(U)p.r(C)p.r(A)p.r(G)p.r(C)p.r(C)p.r(C)p.m(U)p.m(A)p.r(A)p.r(C)p.r(G)p.r(G)p.r(U)p.r(T)p.r(T)}|RNA2{r(A)p.r(C)p.r(C)p.r(G)p.r(U)p.m(U)p.r(A)p.r(G)p.r(G)p.r(G)p.r(C)p.r(U)p.r(G)p.r(A)p.r(G)p.r(G)p.r(U)p.r(U)p.r(U)p.r(T)p.r(T)}$$$RNA1{StrandType:ss}|RNA2{StrandType:as}$    69

Lab note: next substance to report on.
What value of measured target mRNA knockdown is listed for RNA1{r(A)p.r(A)p.r(C)p.r(U)p.r(C)p.m(U)p.r(A)p.r(C)p.m(U)p.r(G)p.m(U)p.r(G)p.r(G)p.r(A)p.r(G)p.r(U)p.r(C)p.r(G)p.r(G)p.r(T)p.r(T)}|RNA2{r(C)p.r(C)p.r(G)p.r(A)p.r(C)p.r(U)p.r(C)p.m(C)p.r(A)p.r(C)p.r(A)p.r(G)p.m(U)p.r(A)p.r(G)p.r(A)p.r(G)p.r(U)p.r(U)p.r(T)p.r(T)}$$$RNA1{StrandType:ss}|RNA2{StrandType:as}$ ? 68

Reference source: the OligoGym collection
